- Test system: HACAT
- Method Summary: qHTS assay to identify novel small-molecules to repurpose for Merkel cell carcinoma treatment (AID 1296009); further: nearly all actives have a fitted effect of over 60% in size
- Reported Conditions: MCC and control cell lines, CellTiter-Glo viability, 72 h; at 44.8 µM (top of the series) unless noted
Results filed as inconclusive are left out. The source made the active and inactive calls. The call rests on the fitted dose curve; in most records, active means well fitted inhibition curve with a large enough effect; inconclusive means small, poorly fitted or top-dose-only effect; inactive means flat fitted curve, though single readings scatter.
Quantity Name: outcome

Record excerpt, results attached:
Compound	outcome
CC(=O)OC[C@]12[C@H](OC(C)=O)C(=O)[C@@H]3[C@@H](O)[C@@]14O[C@@]3(C)COC(=O)c1cccnc1[C@@H](C)[C@H](C)C(=O)O[C@@H]([C@H](O)[C@@H]2OC(C)=O)[C@]4(C)O	inactive [at 17.4 µM]
COc1ccc(-c2csc(NC(=O)[C@H]3CCCCN3S(=O)(=O)c3ccc(C)cc3)n2)cc1	inactive
CC[C@H]1OC(=O)[C@H](C)[C@@H](O[C@H]2C[C@@](C)(OC)[C@@H](O)[C@H](C)O2)[C@H](C)[C@@H](O[C@H]2O[C@H](C)C[C@H](N(C)C)[C@H]2O)[C@](C)(O)C[C@@H](C)C(=O)[C@H](C)[C@@H](O)[C@]1(C)O	inactive [at 17.4 µM]
Cc1ccccc1CN1CCn2c1nc1c(c2=O)CN(Cc2ccccc2)CC1	inactive
O=C(O)c1cc(N(Cc2ccc(C3CCCCC3)cc2)C(=O)c2ccc(Oc3ccccc3)cc2)ccc1O	inactive

Query: Which value of outcome has been reported for COc1ccc(C2=NC(c3ccc(Cl)cc3)C(c3ccc(Cl)cc3)N2C(=O)N2CCNC(=O)C2)c(OC(C)C)c1 (stereo unspecified) in the records?
Reply: inactive
